Here the recorded pIC50 is given for each entry.
# Study Target: Autotaxin (Homo sapiens, UniProt Q13822)
# Protocol Summary: Human Autotaxin Assay: ATX activity is assayed in concentrated conditioned media from Hep3B human hepatocellular carcinoma cells by measuring the amount of choline released from the substrate, lysophosphatidylcholine (LPC) as it is cleaved to LPA. Conditioned media is collected from confluent Hep3B cells and concentrated 20-fold using Centriprep-30 filter devices (Millipore).
pIC50: −log10 of the molar value.

Would you please look over these solved cases?
C#CCCCCn1cc(-n2c(C3CC3)c(Sc3cccc(C(=O)O)c3F)c3ccc(Cl)c(F)c32)cn1 ... > 6.30
CC(C)(CO)Cn1cc(-n2c(C3CC3)c(Sc3cccc(C(=O)O)c3F)c3ccc(Cl)c(F)c32)cn1 ... > 6.30

Here is another molecule to look at.
// pIC50 lookup, molecule = CCCn1cc(-n2c(Br)c(Sc3cccc(C(=O)O)c3)c3ccc(Cl)cc32)cn1 , result: > 6.30
